Experiment: FLE-002 (INSTANT) study: plasma levels of flecainide (Cmax)
Assay type: in vivo
Conditions: human, inhaled, 30 mg, oral inhalation, 30 mg eTLD, read-out: Cmax (mean ± SD)
property_measured: Cmax (ng/mL)

O=C(NCC1CCCCN1)c1cc(OCC(F)(F)F)ccc1OCC(F)(F)F (stereo not shown) [flecainide] : 127

###

Experiment: physchem
Type: physicochemical
Conditions: pH 5.3, aqueous with cosolvent or surfactant or cyclodextrin, Solubility (mg/mL)
property_measured: solubility (mg/mL)

O=C(NCC1CCCCN1)c1cc(OCC(F)(F)F)ccc1OCC(F)(F)F (stereo not shown) [flecainide acetate] : 55

###

Assay: physchem
Conditions: aqueous with cosolvent or surfactant or cyclodextrin, thermodynamic from solid, maximum solubility, calculated as freebase
property_measured: solubility at 24 h (mg/mL)

O=C(NCC1CCCCN1)c1cc(OCC(F)(F)F)ccc1OCC(F)(F)F (stereo not shown) [flecainide acetate] : 125
